Tested on: XF498
Experiment: Cytotoxicity against human XF498 cells
Assay type: functional
Settings: read-out: ED50 (the source's name)
observedProperty: EC50 (µg/mL)
Give bare numbers, in µg/mL.

Record excerpt, results attached:
compound	EC50 [µg/mL]
COC(/C=C/[C@@H](C)CC/C=C(/C)C[C@@H]1OC(=O)C(C)=C1O)C(C)(O)CCCc1ccoc1 (stereo not given in full)	11.3
CCC(C)CN1CC=C(CCC/C(C)=C/C=C/[C@@H](C)CC/C=C(/C)C[C@H]2OC(=O)C(C)=C2O)C1=O (stereo not given in full)	25.2
CO[C@]1(Cc2ccoc2)C=C(CC/C=C(\C)CCC[C@@H](C)/C=C2\OC(=O)C(C)=C2O)C(=O)O1	7.6
CCC(C)CN1CC=C(CCC/C(C)=C/C=C/[C@@H](C)CC/C=C(/C)C[C@@H]2OC(=O)C(C)=C2O)C1=O (stereo not given in full)	5.4

Here is the next item to consider.
Form field EC50, entry COC(=O)C(O)C/C(C)=C\CC[C@H](C)/C=C/C=C(\C)CCCc1ccoc1 (stereo not given in full) : 24.3

---

Test system: XF498
Experiment: Cytotoxicity against human XF498 cells
Format: functional
Conditions: read-out: ED50 (the source's name)
Record form. Attribute: EC50. Fill in for each entry.
One number for each entry, in µg/mL.

Record excerpt, results attached:
compound	outputUnit	EC50
CC1=C(O)[C@@H](C/C(C)=C\CC[C@H](C)/C=C/C=C(\C)CCCC2=CCN(CCC(C)C)C2=O)OC1=O [EPI-SARCOTRINE A]	µg/mL	3.9
C/C(=C/CC[C@@H](C)/C=C/C=C(\C)CCCc1ccoc1)CC(O)C(=O)[O-].[Na+] (some centres undefined)	µg/mL	25.9
CC1=C(O)[C@H](C/C(C)=C\CC[C@H](C)/C=C/C=C(\C)CCCC2=CCN(CCC(C)C)C2=O)OC1=O	µg/mL	5.5

Measured EC50, CC1=C(O)[C@@H](C/C(C)=C\CC[C@H](C)/C=C/C=C(\C)CCCc2ccoc2)OC1=O [EPI-SARCOTIN A] : 9.8

---

System: SK-MEL-2
Assay: Cytotoxicity against human SK-MEL-2 cells
Format: functional
Conditions: read-out: ED50 (the source's name)
observedProperty: EC50 (µg/mL)
Numbers only, in µg/mL.

In the examples that follow, each entry is paired with its recorded EC50.
molecule	outputUnit	EC50
CCC(C)CN1CC=C(CCC/C(C)=C/C=C/[C@@H](C)CC/C=C(/C)C[C@H]2OC(=O)C(C)=C2O)C1=O (stereo not given in full)	µg/mL	15.9
CC1=C(O)[C@H](C/C(C)=C\CC[C@H](C)/C=C/C=C(\C)CCCC2=CCN(CCC(C)C)C2=O)OC1=O [SARCOTRINE A]	µg/mL	4.1
COC(=O)C(O)C/C(C)=C\CC[C@H](C)/C=C/C=C(\C)CCCc1ccoc1 (stereo not given in full) [SARCOTIN J]	µg/mL	7.8
C/C(=C/CC[C@@H](C)/C=C/C=C(\C)CCCc1ccoc1)CC(O)C(=O)[O-].[Na+] (stereo not given in full) [SARCOTIN I]	µg/mL	25.7

Hi, could you look up EC50 for each item in my list?
1. COc1cccc2c1C(=O)c1c(O)c3c(c(O)c1C2=O)C[C@@](O)(C(=O)CO)C[C@@H]3O[C@H]1C[C@H](N)[C@H](O)[C@H](C)O1 [DOXORUBICIN]
2. CO[C@]1(Cc2ccoc2)C=C(CCC/C(C)=C\CC[C@@H](C)/C=C2\OC(=O)C(C)=C2O)C(=O)O1 [SARCOTIN H]

Resp:
1: 0.02; 2: 5.9

Go through the list and state EC50 for each entry.
1. CC1=C(O)[C@@H](C/C(C)=C\CC[C@H](C)/C=C/C=C(\C)CCCc2ccoc2)OC1=O [EPI-SARCOTIN A]
2. CO[C@]1(Cc2ccoc2)C=C(CC/C=C(\C)CCC[C@@H](C)/C=C2\OC(=O)C(C)=C2O)C(=O)O1 [SARCOTIN G]
3. CC1=C(O)[C@@H](C/C(C)=C\CC[C@H](C)/C=C/C=C(\C)CCCC2=CCN(CCc3ccccc3)C2=O)OC1=O [EPI-SARCOTRINE B]
4. CC1=C(O)[C@@H](C/C(C)=C\CC[C@H](C)/C=C/C=C(\C)CCCC2=CCN(CCC(C)C)C2=O)OC1=O [EPI-SARCOTRINE A]
5. CCC(C)CN1CC=C(CCC/C(C)=C/C=C/[C@@H](C)CC/C=C(/C)C[C@@H]2OC(=O)C(C)=C2O)C1=O (stereo not given in full) [SARCOTRINE C]

Resp:
1. 5.6
2. 5.1
3. 4.8
4. 3.4
5. 3.8

Provide EC50 for all items below, preserving their order.
1. CC1=C(O)[C@H](C/C(C)=C\CC[C@H](C)/C=C/C=C(\C)CCCC2=CC(=O)N(CCC(C)C)C2)OC1=O [SARCOTRINE D]
2. CC1=C(O)[C@H](C/C(C)=C\CC[C@H](C)/C=C/C=C(\C)CCCC2=CCN(CCc3ccccc3)C2=O)OC1=O [SARCOTRINE B]

Resp:
1. 13.2
2. 4.3

Please give EC50 for each item listed below.
1. COC1C=C(CCC/C(C)=C/C=C/[C@@H](C)CC/C=C(/C)C[C@@H]2OC(=O)C(C)=C2O)C(=O)O1 (stereo not given in full) [SARCOTIN F]
2. COC(/C=C/[C@@H](C)CC/C=C(/C)C[C@@H]1OC(=O)C(C)=C1O)C(C)(O)CCCc1ccoc1 (stereo not given in full) [SARCOTIN M]

Resp:
7.6
9.9
